Entry source: ChEMBL document CHEMBL3739299

Measured Cell death accompanies every entry in the list below.
assay: Cytotoxicity against human HCT116 cells assessed as cell death at 25 uM after 20 hrs by celltiter blue assay (reference value: 0.4%); format: cell-based; details: hct-116, 20 h

The examples below pair each entry with its known result.
COMPOUND | RECORDED METRIC | RESULT
O=[N+]([O-])c1ccc(NC(c2ccc(Br)cc2)c2ccc3cccnc3c2O)cc1 (stereo not given) | Cell death | < 10%
Oc1c(C(Nc2nc3ccccc3s2)c2ccccc2)ccc2cccnc12 (stereo not given) | Cell death | < 10%
O=C(O)c1cccc(NC(c2ccccc2)c2ccc3ccccc3c2O)c1 (stereo not given) | Cell death | < 10%

Look up and state reported Cell death for Oc1c(C(/N=C/c2ccccc2)c2ccccc2)ccc2cccnc12 (stereo not given)
< 10%

Look up and state reported Cell death for CC(C)(C)c1ccc(NC(c2ccccc2)c2ccc3ccccc3c2O)cc1 (stereo not given)
< 10%

Look up and state reported Cell death for N#Cc1ccc(NC(c2ccccc2)c2ccc3cccnc3c2O)cc1 (stereo not given)
< 10%

Look up and state reported Cell death for Oc1c(C(Nc2ccccc2)c2ccccc2)ccc2ccccc12 (stereo not given)
< 10%

Look up and state reported Cell death for O=C(NC(c1ccccc1)c1ccc2cccnc2c1O)c1ccccc1 (stereo not given)
< 10%

Look up and state reported Cell death for Oc1c(CNc2ccccc2)ccc2cccnc12
< 10%

Look up and state reported Cell death for O=C(O)c1ccc(NC(c2ccc3cccnc3c2O)C2CCCCC2)cc1 (stereo not given)
< 10%

---

Measured Cell death accompanies every entry in the list below.
test: Cytotoxicity against human HCT116 cells assessed as cell death at 25 uM after 20 hrs by celltiter blue assay (reference value: 0.4%); assay type: cell-based; conditions: hct-116, 20 h

The examples below pair each entry with its known result.
MOLECULE | RESULT
CCOC(=O)c1ccc(NC(c2ccc(F)cc2)c2ccc3cccnc3c2O)cc1 (stereo not given) | < 10%
COC(=O)c1ccc(NC(c2ccccc2)c2ccc3cccnc3c2OC)cc1 (stereo not given) | < 10%
O=C(O)c1ccc(NC(c2ccc(Br)cc2)c2ccc3cccnc3c2O)cc1 (stereo not given) | 25%
Oc1c(C(Nc2ccccc2)c2c(F)cc(Br)cc2F)ccc2ccccc12 (stereo not given) | 40%

Look up and state reported Cell death for CCOC(=O)c1ccc(NC(c2ccccc2)c2ccc3cccnc3c2O)cc1 (stereo not given)
< 10%

---

biological target: CAAX prenyl protease 2 (Homo sapiens); experiment: Inhibition of human Rce1-mediated CaaX protease activity using […] and […] as substrate assessed as residual activity at 10 uM measured every 30 to 60 seconds for 60 mins
Cut-off 70% on Activity: below means y, at or above means n.

Quick check: does c1ccc(NC(c2ccccc2)c2ccc3ccccc3c2)cc1 (stereo not given) have Activity under 70%?
n

Quick check: does N#Cc1ccc2ccc(C(Nc3ccccc3)c3ccccc3)c(O)c2n1 (stereo not given) have Activity under 70%?
n

Quick check: does Oc1c(C(Nc2nc3ccccc3s2)c2ccccc2)ccc2cccnc12 (stereo not given) have Activity under 70%?
n

Quick check: does O=C(O)c1ccc(NC(c2ccccc2)c2ccc3ccccc3c2O)cc1 (stereo not given) have Activity under 70%?
y

Quick check: does CCOC(=O)c1ccc(NC(c2ccc(C(F)(F)F)cc2)c2ccc3cccnc3c2O)cc1 (stereo not given) have Activity under 70%?
n

Quick check: does O=C(O)c1ccc(NC(c2ccc3cccnc3c2O)C2CCCCC2)cc1 (stereo not given) have Activity under 70%?
y

Quick check: does O=[N+]([O-])c1ccc(C(Nc2ccccc2)c2ccc3cccnc3c2O)cc1 (stereo not given) have Activity under 70%?
n

Quick check: does c1ccc(NC(c2ccccc2)c2ccc3cccnc3c2)cc1 (stereo not given) have Activity under 70%?
n

Quick check: does O=C(O)c1ccc(NC(c2ccccc2)c2ccccc2)cc1 have Activity under 70%?
n

Quick check: does O=[N+]([O-])c1ccc(NC(c2ccc(Br)cc2)c2ccc3cccnc3c2O)cc1 (stereo not given) have Activity under 70%?
y

Quick check: does O=C(NC(c1ccccc1)c1ccc2cccnc2c1O)c1ccccc1 (stereo not given) have Activity under 70%?
n
